Conditions: in ethanol, 319.15 K
QUANTITY: solubility (mole fraction)
Provide a numeric answer; units are not to be included.

### Prompt State the recorded solubility (mole fraction) for this entry: `CCn1c2ccccc2c2ccccc21`
### Response 0.0433

* * *

Conditions: in n-propanol, 279.15 K
QUANTITY: solubility (mole fraction)
Provide a numeric answer; units are not to be included.

### Prompt State the recorded solubility (mole fraction) for this entry: `CCn1c2ccccc2c2ccccc21`
### Response 0.0092

* * *

Conditions: in methanol, 283.15 K
QUANTITY: solubility (mole fraction)
Provide a numeric answer; units are not to be included.

### Prompt State the recorded solubility (mole fraction) for this entry: `CCn1c2ccccc2c2ccccc21`
### Response 0.0033

* * *

Details: in ethanol, 291.15 K
QUANTITY: solubility (mole fraction)
Provide a numeric answer; units are not to be included.

### Prompt State the recorded solubility (mole fraction) for this entry: `CCn1c2ccccc2c2ccccc21`
### Response 0.0112

* * *

Settings: in isopropanol, 295.15 K
QUANTITY: solubility (mole fraction)
Provide a numeric answer; units are not to be included.

### Prompt State the recorded solubility (mole fraction) for this entry: `CCn1c2ccccc2c2ccccc21`
### Response 0.0127

* * *

Settings: in isopropanol, 287.15 K
QUANTITY: solubility (mole fraction)
Provide a numeric answer; units are not to be included.

### Prompt State the recorded solubility (mole fraction) for this entry: `CCn1c2ccccc2c2ccccc21`
### Response 0.009

* * *

Details: in n-propanol, 311.15 K
QUANTITY: solubility (mole fraction)

### Prompt State the recorded solubility (mole fraction) for this entry: `CCn1c2ccccc2c2ccccc21`
### Response 0.033

* * *

Details: in ethanol, 283.15 K
QUANTITY: solubility (mole fraction)
Provide a numeric answer; units are not to be included.

### Prompt State the recorded solubility (mole fraction) for this entry: `CCn1c2ccccc2c2ccccc21`
### Response 0.008

* * *

Conditions: in n-butanol, 299.15 K
QUANTITY: solubility (mole fraction)
Provide a numeric answer; units are not to be included.

### Prompt State the recorded solubility (mole fraction) for this entry: `CCn1c2ccccc2c2ccccc21`
### Response 0.0271

* * *

Settings: in n-pentanol, 295.15 K
QUANTITY: solubility (mole fraction)

### Prompt State the recorded solubility (mole fraction) for this entry: `CCn1c2ccccc2c2ccccc21`
### Response 0.025

* * *

Conditions: in n-butanol, 307.15 K
QUANTITY: solubility (mole fraction)
Provide a numeric answer; units are not to be included.

### Prompt State the recorded solubility (mole fraction) for this entry: `CCn1c2ccccc2c2ccccc21`
### Response 0.0379

* * *

Conditions: in ethanol, 279.15 K
QUANTITY: solubility (mole fraction)
Provide a numeric answer; units are not to be included.

### Prompt State the recorded solubility (mole fraction) for this entry: `CCn1c2ccccc2c2ccccc21`
### Response 0.0069

* * *

Conditions: in isopropanol, 315.15 K
QUANTITY: solubility (mole fraction)
Provide a numeric answer; units are not to be included.

### Prompt State the recorded solubility (mole fraction) for this entry: `CCn1c2ccccc2c2ccccc21`
### Response 0.0342

* * *

Details: in methanol, 319.15 K
QUANTITY: solubility (mole fraction)
Provide a numeric answer; units are not to be included.

### Prompt State the recorded solubility (mole fraction) for this entry: `CCn1c2ccccc2c2ccccc21`
### Response 0.0179

* * *

Details: in n-propanol, 315.15 K
QUANTITY: solubility (mole fraction)
Provide a numeric answer; units are not to be included.

### Prompt State the recorded solubility (mole fraction) for this entry: `CCn1c2ccccc2c2ccccc21`
### Response 0.0401

* * *

Conditions: in n-pentanol, 283.15 K
QUANTITY: solubility (mole fraction)
Provide a numeric answer; units are not to be included.

### Prompt State the recorded solubility (mole fraction) for this entry: `CCn1c2ccccc2c2ccccc21`
### Response 0.016

* * *

Conditions: in n-pentanol, 303.15 K
QUANTITY: solubility (mole fraction)
Provide a numeric answer; units are not to be included.

### Prompt State the recorded solubility (mole fraction) for this entry: `CCn1c2ccccc2c2ccccc21`
### Response 0.035

* * *

Conditions: in n-propanol, 291.15 K
QUANTITY: solubility (mole fraction)

### Prompt State the recorded solubility (mole fraction) for this entry: `CCn1c2ccccc2c2ccccc21`
### Response 0.0142

* * *

Settings: in methanol, 299.15 K
QUANTITY: solubility (mole fraction)
Provide a numeric answer; units are not to be included.

### Prompt State the recorded solubility (mole fraction) for this entry: `CCn1c2ccccc2c2ccccc21`
### Response 0.0068

* * *

Conditions: in isopropanol, 319.15 K
QUANTITY: solubility (mole fraction)
Provide a numeric answer; units are not to be included.

### Prompt State the recorded solubility (mole fraction) for this entry: `CCn1c2ccccc2c2ccccc21`
### Response 0.0436

* * *

Conditions: in ethanol, 295.15 K
QUANTITY: solubility (mole fraction)
Provide a numeric answer; units are not to be included.

### Prompt State the recorded solubility (mole fraction) for this entry: `CCn1c2ccccc2c2ccccc21`
### Response 0.013

* * *

Conditions: in n-pentanol, 299.15 K
QUANTITY: solubility (mole fraction)
Provide a numeric answer; units are not to be included.

### Prompt State the recorded solubility (mole fraction) for this entry: `CCn1c2ccccc2c2ccccc21`
### Response 0.0292

* * *

Settings: in n-butanol, 315.15 K
QUANTITY: solubility (mole fraction)
Provide a numeric answer; units are not to be included.

### Prompt State the recorded solubility (mole fraction) for this entry: `CCn1c2ccccc2c2ccccc21`
### Response 0.0522

* * *

Conditions: in n-propanol, 287.15 K
QUANTITY: solubility (mole fraction)
Provide a numeric answer; units are not to be included.

### Prompt State the recorded solubility (mole fraction) for this entry: `CCn1c2ccccc2c2ccccc21`
### Response 0.0124

* * *

Conditions: in n-butanol, 291.15 K
QUANTITY: solubility (mole fraction)
Provide a numeric answer; units are not to be included.

### Prompt State the recorded solubility (mole fraction) for this entry: `CCn1c2ccccc2c2ccccc21`
### Response 0.0208

* * *

Details: in n-propanol, 319.15 K
QUANTITY: solubility (mole fraction)
Provide a numeric answer; units are not to be included.

### Prompt State the recorded solubility (mole fraction) for this entry: `CCn1c2ccccc2c2ccccc21`
### Response 0.048

* * *

Settings: in n-butanol, 287.15 K
QUANTITY: solubility (mole fraction)
Provide a numeric answer; units are not to be included.

### Prompt State the recorded solubility (mole fraction) for this entry: `CCn1c2ccccc2c2ccccc21`
### Response 0.0172

* * *

Conditions: in isopropanol, 283.15 K
QUANTITY: solubility (mole fraction)
Provide a numeric answer; units are not to be included.

### Prompt State the recorded solubility (mole fraction) for this entry: `CCn1c2ccccc2c2ccccc21`
### Response 0.0076

* * *

Conditions: in isopropanol, 311.15 K
QUANTITY: solubility (mole fraction)
Provide a numeric answer; units are not to be included.

### Prompt State the recorded solubility (mole fraction) for this entry: `CCn1c2ccccc2c2ccccc21`
### Response 0.028

* * *

Settings: in ethanol, 307.15 K
QUANTITY: solubility (mole fraction)
Provide a numeric answer; units are not to be included.

### Prompt State the recorded solubility (mole fraction) for this entry: `CCn1c2ccccc2c2ccccc21`
### Response 0.0228

* * *

Details: in methanol, 279.15 K
QUANTITY: solubility (mole fraction)
Provide a numeric answer; units are not to be included.

### Prompt State the recorded solubility (mole fraction) for this entry: `CCn1c2ccccc2c2ccccc21`
### Response 0.0028

* * *

Settings: in n-pentanol, 287.15 K
QUANTITY: solubility (mole fraction)
Provide a numeric answer; units are not to be included.

### Prompt State the recorded solubility (mole fraction) for this entry: `CCn1c2ccccc2c2ccccc21`
### Response 0.0183
